This collection of values is drawn from patent US20110177071A1.

Biological target: T1, human CD86-murine Ig fusion protein (human)
T1 construct: Bought (Ancell #509-820); also called hCD86-mIg
T1 chain: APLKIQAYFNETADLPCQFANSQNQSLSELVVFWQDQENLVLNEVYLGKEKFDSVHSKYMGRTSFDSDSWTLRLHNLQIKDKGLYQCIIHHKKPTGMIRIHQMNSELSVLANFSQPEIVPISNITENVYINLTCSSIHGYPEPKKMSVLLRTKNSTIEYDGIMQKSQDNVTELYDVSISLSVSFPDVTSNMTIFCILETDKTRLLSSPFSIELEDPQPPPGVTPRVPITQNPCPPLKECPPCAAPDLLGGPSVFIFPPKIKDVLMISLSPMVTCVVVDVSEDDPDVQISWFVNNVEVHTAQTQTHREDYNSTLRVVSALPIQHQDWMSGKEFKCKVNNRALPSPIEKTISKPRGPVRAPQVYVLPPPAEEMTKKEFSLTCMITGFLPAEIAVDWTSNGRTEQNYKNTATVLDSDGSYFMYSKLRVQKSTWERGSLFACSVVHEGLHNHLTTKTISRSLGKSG
Assay: SPR Biacore, hCD86-mIg captured
Measured property: Binding Avidity (Relative to Orencia)

D3-66-IgG2 (Fc fusion) MHVAQPAVVLASSRGIASFVCEYASPGKANEVRVTVLRQADSQVTEVCAMTYMKGDELTFLDDPICTGTFSGNQVNLTIQGLRAMDTGLYICKVELMYPPPYYEGIGNGTQIYVIDPEPCPDSDERKCCVECPPCPAPPVAGPSVFLFPPKPKDTLMISRTPEVTCVVVDVSHEDPEVQFNWYVDGVEVHNAKTKPREEQFNSTFRVVSVLTVVHQDWLNGKEYKCKVSNKGLPAPIEKTISKTKGQPREPQVYTLPPSREEMTKNQVSLTCLVKGFYPSDIAVEWESNGQPENNYKTTPPMLDSDGSFFLYSKLTVDKSRWQQGNVFSCSVMHEALHNHYTQKSLSLSPG: > 40 fold

In: Please give the measured Binding Avidity (Relative to Orencia) for this binder: D3-16-IgG2 (Fc fusion) MHVAQPAVVLASSRGIASFVCEYESPGKANEIRVTVLRQAGSQVTEVCAMTYMKGDELTFLDDPSCTGTFSGNQVNLTIQGLRAMDTGLYICKVELMYPPPYYLGIGNGTQIYVIDPEPCPDSDERKCCVECPPCPAPPVAGPSVFLFPPKPKDTLMISRTPEVTCVVVDVSHEDPEVQFNWYVDGVEVHNAKTKPREEQFNSTFRVVSVLTVVHQDWLNGKEYKCKVSNKGLPAPIEKTISKTKGQPREPQVYTLPPSREEMTKNQVSLTCLVKGFYPSDIAVEWESNGQPENNYKTTPPMLDSDGSFFLYSKLTVDKSRWQQGNVFSCSVMHEALHNHYTQKSLSLSPG
Out: > 40 fold
